Assay: Pharmacokinetic study of 157 (and metabolite endothal) in SD rats, iv and po; plasma, liver, brain
Type: in vivo
Conditions: female, Sprague-Dawley (SD), rat, in vivo, po, 1.5 mg/kg, PO 1.5 mg/kg, 1 hr, Rat 2; read-out: 157 plasma concentration
quantity.kind: concentration at 1 h
Respond with the figure and its unit, in that order.

State the recorded concentration at 1 h for this entry: CCCCCCCOC(=O)C1C2CCC(O2)C1C(=O)N1CCN(C)CC1 (stereo not shown) [Compound 157]
1.26 ng/mL

###

Test: Pharmacokinetic study of 153 (and metabolite endothal) in SD rats, iv and po; plasma, liver, brain
Type: in vivo
Details: female, SD, rat, in vivo, po, 1.25 mg/kg, PO per title, 1.25 mg/kg, 1 hr, Mean; read-out: 153 liver concentration
Experimental: The blood, liver and brain tissue samples were collected at predetermined times from rats. […] Compound were diluted shortly before use in 4% sodium bicarbonate for sterile injection (this is the standard pediatric solution of NaHCO3 with a pH of about 8.5). Compound 153 was freshly prepared by diluting the drugs shortly before use in 4% sodium bicarbonate for sterile injection (this is the standard pediatric solution of NaHCO3 with a pH of about 8.5). […]
quantity.kind: concentration at 1 h (ng/g)
Answer in ng/g, number only, no unit symbol.

What does the data say about its concentration at 1 h? Entry: CCCOC(=O)C1C2CCC(O2)C1C(=O)N1CCN(C)CC1 (stereo not shown)
126

###

Assay: Pharmacokinetic study of 153 (and metabolite endothal) in SD rats, iv and po; plasma, liver, brain
Type: in vivo
Settings: female, SD, rat, in vivo, iv, 1.25 mg/kg, 153 in plasma, IV 1.25 mg/kg, rat 1
Protocol: The blood, liver and brain tissue samples were collected at predetermined times from rats. […] Compound were diluted shortly before use in 4% sodium bicarbonate for sterile injection (this is the standard pediatric solution of NaHCO3 with a pH of about 8.5). Compound 153 was freshly prepared by diluting the drugs shortly before use in 4% sodium bicarbonate for sterile injection (this is the standard pediatric solution of NaHCO3 with a pH of about 8.5). […]
quantity.kind: AUC(0-inf)
Answer format: value, then unit.

Requested read-out: AUC(0-inf). Entry: CCCOC(=O)C1C2CCC(O2)C1C(=O)N1CCN(C)CC1 (stereo not shown)
303 ng·h/mL

###

Assay: Pharmacokinetic study of 100 (and metabolite endothal) in SD rats, iv; plasma, liver, brain
Conditions: female, SD, rat, in vivo, iv, 1 mg/kg, Endothal liver concentration, 100 iv 1.0 mg/kg, SD rats, 6 hr, individual
quantity.kind: concentration at 6 h (ng/g)
Dear colleague, please return just the value in ng/g, with no unit written.

State the recorded concentration at 6 h for this entry: O=C(O)C1C2CCC(O2)C1C(=O)O (stereo not shown) [Endothal]
298

###

Assay: in vivo
Design: species or system SD rats
Conditions: male, Sprague-Dawley, rat, iv, 1.4 mg/kg, Brain-plasma concentration ratio of 113
quantity.kind: Kp at 1 h

Recorded Kp at 1 h of CN1CCN(C(=O)C2C(C(=O)OCC(Cl)(Cl)Cl)[C@H]3CC[C@@H]2O3)CC1 (stereo partly shown) , please.
0.537

###

Assay: in vivo
Parameters: species or system SD rats
Settings: male, Sprague-Dawley (SD), rat, iv, 1.4 mg/kg
quantity.kind: AUC(0-inf) (ng·h/mL)
Report the value in ng·h/mL with no unit label.

AUC(0-inf) for CN1CCN(C(=O)C2C3CCC(O3)C2C(=O)O)CC1 (stereo not shown) ?
2830
